Origin of measurements: PubChem BioAssay (NCI)

# Tested on: A498 renal
# Protocol details: NCI-60 one-dose screen, 48 h (100 = growth as untreated, 0 = no growth, -100 = all killed)
# Measurement setup: 10 µM unless noted
The panel holds about 83,000 compounds, 20% with a hit somewhere; the sample as a whole holds those more often.
Consider the following compounds and their measured growth readings.
Endpoint label: growth (%)

Compound	Observed measurement
CN1CCN(Cn2nc(-c3cc(Cl)cc(Cl)c3Cl)n(/N=C/c3ccc(Cl)cc3)c2=S)CC1	97.8
CCc1c(C)c2cc3c(c(C)c2oc1=O)OCC(=O)N3	43.6
CCOC(=O)C(C)(CSSCC(C)(NC(=O)c1ccc2ccccc2c1)C(=O)OCC)NC(=O)c1ccc2ccccc2c1 (centres undefined)	136
COc1cc(-c2nc3ccccc3s2)ccc1OCc1nc2n(n1)S(=O)(=O)c1ccccc1N2c1ccccc1	100
COc1ccc(-c2cc(-c3nnc(SC/C(=N\O)c4ccccc4)n3-c3ccccc3)c3ccccc3n2)cc1	109
O=C(NNC(=O)c1ccc([N+](=O)[O-])cc1)c1ccc([N+](=O)[O-])cc1	90.5
FC(F)(F)c1cn(CC2CNC2)c2ncnc(Cl)c12	112
Cc1ccc(NC(=O)CN2CCOCC2)cc1Cl	61.3
C=C1C(=O)O[C@H]2[C@H]1CC/C(COC(=O)c1cccc3ccccc13)=C\CC[C@@]1(C)O[C@@H]21	82.2

###

# System: HS 578T breast
# Protocol details: NCI-60 one-dose screen, 48 h
# Measurement setup: 10 µM unless noted
Compounds without any hit were thinned out: in the full panel of roughly 83,000, 20% have a hit. Active and inactive are the calls of the source. Rule for the calls: active = growth percent below 10; inactive = the rest.
Outcome codes: active, inactive

Compound	Qualitative label
CCN(CC)CC(=O)Nc1c(C)cccc1C	inactive
Fc1ccc(Nc2ncnc3ccc(-c4cn[nH]c4)cc23)cc1Cl	inactive
COc1cc(-c2nc3sc(C)cn3c2/C=C2\C(=O)Nc3ccccc32)c(Br)c(OC)c1OC	inactive
CC(=O)n1cc(/C=C2\N=C(c3ccc(Cl)cc3)N(c3ccc(S(=O)(=O)Nc4nccs4)cc3)C2=O)c2ccccc21	inactive
COc1ccccc1NC(=O)COc1ccc(/C=C2/Oc3cc4occc4c(OC)c3C2=O)cc1OC	inactive
CC(C)(C)OC(=O)N1CCN(CCn2cc(C(F)(F)F)c3c(Cl)ncnc32)CC1	inactive
C=C(C)[C@@H]1C/C=C(\COC(=O)[C@H](OC(C)=O)C(NC(=O)c2ccccc2)c2ccccc2)CC[C@H]2O[C@]2(C)CC/C=C(\C)CC1 (some centres undefined)	inactive
C/C(=N\N=C1/SCC(=O)N1c1ccccc1)c1ccco1	inactive
O=C(O)c1ccc(-n2cc(/C=N/Nc3ccc(Cl)cc3)c(-c3ccc(F)c(F)c3)n2)cc1	inactive
Cc1ccc(-c2cc(-c3nnc(SCC(=O)c4ccccc4)o3)c3ccccc3n2)cc1	inactive
CC(=O)Oc1ccc(C(OC(C)=O)OC(C)=O)cc1	inactive
COc1ccc(/C(Cl)=N/N=C(\Cl)c2cc(OC)c(OC)c(OC)c2)cc1OC(C)=O	inactive
CCC1CN2C(=N1)c1ccccc1-c1cc(Cl)ccc12 (centres undefined)	inactive
COc1cc(NC(C)CCCN2C(=O)c3ccccc3C2=O)c2nc(C)ccc2c1OC (centres undefined)	inactive
NC(CSC(c1ccccc1)(c1ccccc1)c1ccc(F)cc1)C(=O)O (centres undefined)	inactive
COc1cc(-c2nc3ccccc3s2)ccc1OCc1nc2n(n1)S(=O)(=O)c1ccccc1N2c1ccccc1	inactive
CC1(C)CC(=O)C2=C(C1)OC1=C(C(=O)CC(C)(C)C1)C2c1ccc(OCc2cn(-c3ccc(F)cc3F)nn2)cc1	inactive
CCCC(=O)Oc1ccc(/C(=C(\C)c2ccc(Cl)cc2)c2ccc(OCCN(CC)CC)cc2)cc1	active
O=C(COc1ccc(Cl)cc1)N1CCN(Cc2ccc3c(c2)OCO3)CC1	inactive

###

# Tested on: HT29 colon
# Protocol details: NCI-60 one-dose screen, 48 h (100 = growth as untreated, 0 = no growth, -100 = all killed)
# Measurement setup: 10 µM unless noted
This is part of a sample that, as a whole, favours compounds with a hit. Of some 83,000 tested, about 20% had one in any assay.
Consider the following compounds and their measured growth readings.

Compound	Reading unit	growth
C=CC(C)(O)CCC1C(=C)CCC2C(C)(C)CCCC12C (stereo not given)	%	70.1
c1ccc2c(c1)Oc1cccnc1-n1nccc1-2	%	99.7
CN(C)c1ccc(/C=c2\s/c(=C\C(=O)C(C)(C)C)[nH]c2=O)cc1	%	91
CCn1c(SCC(=O)c2ccc(Br)cc2)nnc1-c1cc2c([nH]c3ccccc32)c(-c2cccc(O)c2)n1	%	91.6
C#C[C@@]1(O)[C@@H](CO)O[C@@H](n2cc(C(F)(F)F)c3c(N)ncnc32)[C@@H]1O	%	0.254
O=C(Nc1ccc(-n2ccc3c(NC(=O)c4ccccc4)ncnc32)cc1)Nc1ccc(Cl)c(Cl)c1	%	-58.2
O=S(=O)(Nc1cccc2cc(OS(=O)(=O)c3ccccc3)ccc12)c1ccccc1	%	19.2
CC(=O)Nc1ccc(OC(=O)c2ccccc2O)cc1	%	113
O=C1C(Cl)=C(Nc2ccccc2)C(=O)C(Cl)=C1Nc1ccccc1	%	112
FC(F)(F)c1cn(CC2CNC2)c2ncnc(Cl)c12	%	92.2

###

Consider the following compounds and their measured growth readings.
# Test system: MDA-MB-435 melanoma
# Protocol details: NCI-60 one-dose screen, 48 h (100 = growth as untreated, 0 = no growth, -100 = all killed)
# Measurement setup: 10 µM unless noted
This is part of a sample that, as a whole, favours compounds with a hit. Of some 83,000 tested, about 20% had one in any assay. Calls of active or inactive are those of the source. The calls were made as follows: active = growth percent below 10; inactive = the rest.

Compound	growth
COc1cccc(-c2nc3sccn3c2-c2ccnc(NCCNC(=O)c3ccccc3)n2)c1	55.2% (inactive)
O=C(O)c1ccc(-c2nn(-c3ccc(C(=O)O)cc3)cc2/C=N/Nc2c(F)c(F)cc(F)c2F)cc1	107% (inactive)
COc1ccc(NC(=O)Nc2ccc(-c3ccc(OC)c(OC)c3)nc2C)cc1	65.2% (inactive)
COc1cc2c(cc1OCCCCC(=O)Nc1ccc(-c3nc4ccccc4s3)cc1)N=C[C@@H]1CCCN1C2=O	-70.8% (active)
COc1cc(NC(C)CCCN2C(=O)c3ccccc3C2=O)c2ncccc2c1OC (stereo not given)	92.1% (inactive)

###

# Test system: SNB-19 CNS
# Protocol details: NCI-60 one-dose screen, 48 h (100 = growth as untreated, 0 = no growth, -100 = all killed)
# Measurement setup: 10 µM unless noted
About 83,000 compounds went through this panel and 20% of them were active in at least one assay; those are over-represented in the sample as a whole.
Threshold check on growth: at or above 70% gives TRUE, strictly below gives FALSE.

Compound	Measurement target	Qualitative label
CC(C)(C)C(=O)/C=c1/[nH]c(=O)/c(=C/c2ccccc2O)s1	SNB-19 CNS	FALSE
Cc1ccc(-c2nc3c(N=Nc4ccc(S(N)(=O)=O)cc4)c(N)nn3c(N)c2C#N)cc1	SNB-19 CNS	FALSE
CC(=O)Cc1cccnc1	SNB-19 CNS	TRUE
C=C1C(=O)O[C@H]2[C@H]1CC/C(COC(=O)c1ccc(C#N)cc1)=C\CC[C@@]1(C)O[C@@H]21	SNB-19 CNS	FALSE
C=C1C(=O)O[C@H]2[C@H]1CC/C(COC(=O)n1ccnc1C)=C\CC[C@@]1(C)O[C@@H]21	SNB-19 CNS	TRUE
O=C(N/N=C1\SCC(=O)N1c1ccccc1)c1cc(-c2cc3ccccc3o2)nn1-c1ccccc1	SNB-19 CNS	TRUE
Oc1ccc(Cl)cc1Sc1cc(Cl)ccc1O	SNB-19 CNS	TRUE
O=C(Nc1ccc(-n2cc(-c3ccncc3)c(-c3ccc(O)c(Cl)c3)n2)cc1)c1cc(Cl)cc(Cl)c1	SNB-19 CNS	FALSE
COc1cc(-c2nc3ccccc3s2)ccc1OCc1nc2n(n1)S(=O)(=O)c1ccccc1N2C	SNB-19 CNS	TRUE
COc1ccccc1S(=O)(=O)Nc1ccc2c3c(cc(-c4cnn(C5CC5)c4)nc13)C(=O)N2C	SNB-19 CNS	TRUE
CCN(CC)CCN1C(=O)c2c(c3c4ccccc4[nH]c3c3[nH]c4ccccc4c23)C1=O	SNB-19 CNS	TRUE
O=C1CN(CCN2CC(=O)NC(=O)C2)CC(=O)N1	SNB-19 CNS	TRUE
CN(C)c1ccc(/C=N/n2c(-c3cc(F)c(Cl)cc3Cl)nn(CN3CCOCC3)c2=S)cc1	SNB-19 CNS	TRUE
CCOC(=O)C1CN(Cc2ccccc2)C(=O)C1=O (stereo not given)	SNB-19 CNS	TRUE
CCOC(=O)c1noc2c1CCc1c-2cn(Cc2ccc(OC)cc2)c1-c1cc(OC)c(OC)c(OC)c1	SNB-19 CNS	FALSE
CCOc1ccc(NC(=O)Nc2cc(C(C)C)ccc2C)cc1	SNB-19 CNS	TRUE
CS(=O)(=O)Nc1cccc(-c2ccc3ncnc(Nc4ccc(F)c(Cl)c4)c3c2)c1	SNB-19 CNS	FALSE
CN(C)c1ccc(/C=c2\s/c(=C\C(=O)C(C)(C)C)[nH]c2=O)cc1	SNB-19 CNS	TRUE
O=[N+]([O-])c1cccc(C(c2ccccc2)c2ccccc2)c1	SNB-19 CNS	TRUE
O=C(O)c1ccc2nc(-c3ccc(OCCCCCOc4ccc(-c5nc6ccc(C(=O)O)cc6[nH]5)cc4)cc3)[nH]c2c1	SNB-19 CNS	FALSE
